Where do the numbers come from? From ChEMBL document CHEMBL1275498.

assay: AUC (0 to infinity) in healthy man plasma at 500 mg, iv administered as 1 hr infusion by LC-MS/MS analysis; type: ADME, organism-based; design: dose 500 mg, time infinity, route intravenous; settings: male, human
endpoint: AUC(0-inf) (ng·h/mL)

[
  {
    "molecule": "C[C@@H](O)[C@H]1C(=O)N2[C@@H]1[C@@H](C)C(S[C@@H]1CN[C@H](CNS(N)(=O)=O)C1)=[14C]2C(=O)O [[14C]-DORIPENEM]",
    "unit tag": "ng·h/mL",
    "value measured": 31800
  }
]

====

assay: Half life in healthy man plasma at 500 mg, iv administered as 1 hr infusion by LC-MS/MS analysis; format: ADME, organism-based; settings: male, human

[
  {
    "compound": "C[C@@H](O)[C@H]1C(=O)N2[C@@H]1[C@@H](C)C(S[C@@H]1CN[C@H](CNS(N)(=O)=O)C1)=[14C]2C(=O)O [[14C]-DORIPENEM]",
    "half-life": "1.07 h"
  }
]

====

assay: Renal clearance in healthy man dosed at 500 mg, iv administered as 1 hr infusion; type: ADME, organism-based, Kidney; details: male, human, in vivo
endpoint: CL renal at 1 h

[
  {
    "molecule": "C[C@@H](O)[C@H]1C(=O)N2[C@@H]1[C@@H](C)C(S[C@@H]1CN[C@H](CNS(N)(=O)=O)C1)=[14C]2C(=O)O [[14C]-DORIPENEM]",
    "value measured": "208 mL/min"
  }
]

====

assay: Cmax in healthy man plasma at 500 mg, iv administered as 1 hr infusion by LC-MS/MS analysis; type: ADME, organism-based; parameters: dose 500 mg, route intravenous; conditions: male, human

[
  {
    "compound": "C[C@@H](O)[C@H]1C(=O)N2[C@@H]1[C@@H](C)C(S[C@@H]1CN[C@H](CNS(N)(=O)=O)C1)=[14C]2C(=O)O [[14C]-DORIPENEM]",
    "Cmax": "22900 ng/mL"
  }
]

====

assay: Elimination rate constant in plasma of healthy man dosed at 500 mg, iv administered as 1 hr infusion; format: ADME, organism-based; conditions: male, human
endpoint: k el at 1 h (s⁻¹)

[
  {
    "compound": "C[C@@H](O)[C@H]1C(=O)N2[C@@H]1[C@@H](C)C(S[C@@H]1CN[C@H](CNS(N)(=O)=O)C1)=[14C]2C(=O)O [[14C]-DORIPENEM]",
    "value measured": 0.000183
  }
]

====

experiment: Tmax in healthy man plasma at 500 mg, iv administered as 1 hr infusion by LC-MS/MS analysis; type: ADME, organism-based; conditions: male, human

[
  {
    "molecule": "C[C@@H](O)[C@H]1C(=O)N2[C@@H]1[C@@H](C)C(S[C@@H]1CN[C@H](CNS(N)(=O)=O)C1)=[14C]2C(=O)O [[14C]-DORIPENEM]",
    "Tmax, h": 1.02
  }
]
